Assay Target: human EP4 receptor (Homo sapiens (Human), UniProt P35408)
Sequence (P35408 whole entry): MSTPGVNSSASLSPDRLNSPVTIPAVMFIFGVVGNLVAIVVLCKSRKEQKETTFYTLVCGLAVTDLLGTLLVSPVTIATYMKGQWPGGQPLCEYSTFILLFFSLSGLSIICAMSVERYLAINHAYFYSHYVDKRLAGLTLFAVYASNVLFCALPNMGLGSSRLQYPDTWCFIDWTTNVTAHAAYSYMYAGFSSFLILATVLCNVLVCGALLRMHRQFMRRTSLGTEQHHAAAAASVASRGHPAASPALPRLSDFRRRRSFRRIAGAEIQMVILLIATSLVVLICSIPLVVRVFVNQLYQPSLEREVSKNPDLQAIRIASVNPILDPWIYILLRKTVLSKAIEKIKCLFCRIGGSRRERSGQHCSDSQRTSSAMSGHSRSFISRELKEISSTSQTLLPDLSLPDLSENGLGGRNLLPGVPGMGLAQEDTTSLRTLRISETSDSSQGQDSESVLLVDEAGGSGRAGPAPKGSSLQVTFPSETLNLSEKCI
Experiment Description: hEP4 antagonism test (cAMP HTRF, PGE2-stimulated hEP4-expressing cells)
Type: cell-based
Test Settings: hEP4-expressing cells, PGE2 at EC80 (0.4 nM), cAMP TR-FRET; read-out: hEP4 antagonization IC50
Measurement Name: IC50 (nM)
Give bare numbers, in nM.

Worked examples follow.
INSERT INTO results (molecule, measurement_name, recorded_number) VALUES
  ('CCn1c2ccc(-c3nc4c(C)c(C(=O)OC)ccc4n3CCOC)cc2c2cc(C)cc(F)c21 [Example 3]', 'IC50', 40),
  ('CCOC(=O)c1ccc2c(c1)nc(-c1ccc3c(c1)c1cc(C)cc(F)c1n3CC)n2CCOC [Example 9]', 'IC50', 62),
  ('CCn1c2ccc(-c3nc4c(C)c(C(=O)O)ccc4n3CCOC)cc2c2cc(F)cc(C)c21 [Example 6]', 'IC50', 2);

Request: Need IC50 of CCn1c2ccc(-c3nc4c(C)c(C(=O)O)ccc4n3CCOC)cc2c2cc(C)cc(Cl)c21 [Example 12] , thanks.
Result: 2.8

* * *

Assay Target: human EP4 receptor (Homo sapiens (Human), UniProt P35408)
Experiment Description: hEP4 antagonism test (cAMP HTRF, PGE2-stimulated hEP4-expressing cells)
Type: cell-based
Test Settings: hEP4-expressing cells, PGE2 at EC80 (0.4 nM), cAMP TR-FRET; read-out: hEP4 antagonization IC50
Source text: The antagonistic action can be determined by an antagonism assay (see Example 3.2.1 of the biological examples). 3. Detection of the Antagonism of the Human Prostaglandin E2 (Subtype ER4) Receptor Signal Detection of the Antagonization of the hEP4 Signal Binding of the agonist prostaglandin E2 (PGE2) to the EP4 subtype of the human hPGE2-R (hEP4-R) induces activation of membrane-bound adenylate cyclases and thus the formation of cAMP. […]
Answer each item with its documented IC50.
Numbers only, in nM.

Worked examples follow.
INSERT INTO results (compound, measurement_name, recorded_number) VALUES
  ('CCn1c2ccc(-c3nc4cc(C(=O)O)ccc4n3CCOC)cc2c2cc(C)cc(F)c21 [Example 10]', 'IC50', 1.5),
  ('CCn1c2ccc(-c3nc4c(F)c(C(=O)O)ccc4n3CCOC)cc2c2cc(C)cc(F)c21 [Example 8]', 'IC50', 1.9),
  ('CCn1c2ccc(Br)cc2c2cc(-c3nc4c(C)c(C(=O)OC)ccc4n3CCOC)ccc21 [Example 1]', 'IC50', 32);

We now examine a further compound.
Request: Need IC50 of CCn1c2ccc(-c3nc4c(F)c(C(=O)O)ccc4n3CCOC)cc2c2cc(F)cc(C)c21 [Example 7] , thanks.
Result: 2.4

* * *

Assay Target: human EP4 receptor (Homo sapiens (Human))
Experiment Description: hEP4 antagonism test (cAMP HTRF, PGE2-stimulated hEP4-expressing cells)
Type: cell-based
Test Settings: PGE2-induced stimulation of cAMP production, cells expressing the EP4 receptor; read-out: inhibition of PGE2-induced cAMP production in cells expressing the EP4 receptor, IC50
Measurement Name: IC50

Request: Need IC50 of CCn1c2ccc(-c3nc4cc(C(=O)O)ccc4n3CCOC)cc2c2cc(C)cc(F)c21 , thanks.
Result: ~1.5 nM
